# System: Mycobacterium tuberculosis
# runDescription: Antitubercular activity against serine beta-lactamase producing Mycobacterium tuberculosis H37Rv after 14 days in presence of middlebrook 7H9/BSA medium by eleven fold serial dilution method
# Assay type: functional
# testContext: 336 h
log10(MIC99) values, listed per item
In our notation, the value equals log10 of MIC99 in µg/mL.

Look up and report log10(MIC99), with Mycobacterium tuberculosis as system, for C[C@@H](NC(=O)N1C(=O)C[C@@H]1Sc1ccc(F)cc1Cl)c1ccccc1
1.40

Look up and report log10(MIC99), with Mycobacterium tuberculosis as system, for O=C1CC([Se]c2ccccc2)N1 (racemic)
1.40

Look up and report log10(MIC99), with Mycobacterium tuberculosis as system, for C[C@H](NC(=O)N1C(=O)C[C@@H]1Sc1ccc(F)c(Cl)c1)c1ccccc1
1.40

Look up and report log10(MIC99), with Mycobacterium tuberculosis as system, for O=C1CC(Sc2ccc(F)c(F)c2)N1C(=O)NCc1ccccc1 (racemic)
0.79

Look up and report log10(MIC99), with Mycobacterium tuberculosis as system, for C[C@@H](NC(=O)N1C(=O)C[C@@H]1[Se]c1ccccc1)c1ccccc1
1.40

====

LCK values, listed per item
# Test system: Mycobacterium tuberculosis
# runDescription: Bactericidal activity against serine beta-lactamase producing Mycobacterium tuberculosis H37Rv assessed as induction of microbial kill at MIC preincubated in middlebrook 7H9 medium for 7 days and further incubated in middlebrook 7H11/BSA supplemented with OADC for 3 weeks by serial dilution based colony counting method
# Type: functional

Supply recorded LCK for O=C1CC(Sc2ccc(F)c(F)c2)N1 (racemic) here.
<3

Supply recorded LCK for O=C1CC(Sc2c(F)c(F)c(F)c(F)c2F)N1C(=O)NCc1ccccc1 (racemic) here.
<3

Supply recorded LCK for C[C@H](NC(=O)N1C(=O)C[C@H]1Sc1c(F)c(F)c(F)c(F)c1F)c1ccccc1 here.
<3

Supply recorded LCK for C[C@@H](NC(=O)N1C(=O)C[C@@H]1Sc1c(F)c(F)c(F)c(F)c1F)c1ccccc1 here.
<3

Supply recorded LCK for C[C@@H](NC(=O)N1C(=O)C[C@H]1Sc1c(F)c(F)c(F)c(F)c1F)c1ccccc1 here.
<3

====

MIC values, listed per item
# Test system: Mycobacterium tuberculosis
# runDescription: Antitubercular activity against clinical drug sensitive Mycobacterium tuberculosis K14b00DS after 14 days in presence of middlebrook 7H9/BSA medium by eleven fold serial dilution method
# Format: functional
# testContext: 336 h

{"columns": ["compound", "MIC"],
 "data": [
  ["C[C@H](NC(=O)N1C(=O)C[C@H]1Sc1ccc(F)cc1F)c1ccccc1", "50 µg/mL"],
  ["O=C1CC(Sc2ccc(C(F)(F)F)cc2)N1C(=O)NCc1ccccc1 (racemic)", "25 µg/mL"],
  ["NNC(=O)c1ccncc1", "0.08 µg/mL"],
  ["C[C@H](NC(=O)N1C(=O)C[C@@H]1Sc1ccc(C(F)(F)F)cc1)c1ccccc1", "25 µg/mL"],
  ["C[C@@H](NC(=O)N1C(=O)C[C@@H]1Sc1ccc(F)cc1F)c1ccccc1", "25 µg/mL"]
]}

Supply recorded MIC for C[C@@H](NC(=O)N1C(=O)C[C@H]1Sc1ccc(F)cc1F)c1ccccc1 here.
25 µg/mL

====

MIC99 values, listed per item
# Test system: Mycobacterium tuberculosis
# runDescription: Antitubercular activity against serine beta-lactamase producing Mycobacterium tuberculosis H37Rv after 14 days in presence of middlebrook 7H9/BSA medium by eleven fold serial dilution method
# Assay type: functional
# testContext: 336 h

{"columns": ["moleculeSmiles", "MIC99"],
 "data": [
  ["C[C@@H](NC(=O)N1C(=O)C[C@H]1Sc1c(F)c(F)c(F)c(F)c1F)c1ccccc1", "> 100 µg/mL"],
  ["C[C@@H](NC(=O)N1C(=O)C[C@@H]1Sc1c(F)c(F)c(F)c(F)c1F)c1ccccc1", "> 100 µg/mL"]
]}

Supply recorded MIC99 for C[C@@H](NC(=O)N1C(=O)C[C@@H]1Sc1ccc(F)c(F)c1)c1ccccc1 here.
> 100 µg/mL
